tested on: SK-MEL-28 melanoma; assay: NCI-60 one-dose screen, 48 h; details: 10 µM unless noted
About 83,000 compounds went through this panel and 20% of them were active in at least one assay; those are over-represented in the sample as a whole. Calls of active or inactive are those of the source. Rule for the calls: active = growth percent below 10; inactive = the rest.
Pick one and only one: YES (active), NO (inactive)

Query: recorded result category for O=C(NCCNC(=O)Oc1cccc2ccccc12)Oc1cccc2ccccc12 in this test
Response: NO

Query: Returns: the outcome recorded for O=C1C(=O)c2c(nc3ccc(Cl)cn23)-c2ccccc21 in this assay.
Response: YES

Query: Which outcome was entered for the molecule O=C1c2cc3c(cc2-c2c1c1ccc(Cl)cc1c(=O)n2CCCNCCO)OCO3 in this test?
Response: YES

Query: So what was the verdict on N#Cc1c(-c2ccccc2)cc(-c2ccccc2)n(CC(=O)O)c1=O in this test?
Response: NO

Query: // param item: O=CN1N=C(c2ccc(Cl)cc2)CC1c1cccc(Nc2ccnc3cc(Cl)ccc23)c1 (stereo unspecified) ; yields the recorded call
Response: NO

Query: For COc1cccc(-c2nc(-c3ccc(N)cc3)co2)c1 , which call appears in the assay record?
Response: NO

---

test system: SF-268 CNS; experiment: NCI-60 one-dose screen, 48 h; settings: 10 µM unless noted
About 83,000 compounds went through this panel and 20% of them were active in at least one assay; those are over-represented in the sample as a whole. The source made the active and inactive calls. Rule for the calls: active = growth percent below 10; inactive = the rest.
Your answer must be one of the following: label 1 = active, label 0 = inactive

Query: Record request — test call for COC(=O)C1=CCC(n2cnc3c(N)ncnc32)O1 (stereo not given)
Response: label 0

Query: Hey, what did the test say about COC(=O)[C@H](Cc1cn(C)cn1)NC(=O)[C@H](C)NC(=O)Nc1cc(C(F)(F)F)cc(C(F)(F)F)c1 ?
Response: label 1

Query: Returns: the outcome recorded for COc1ccc2c(c1)C(=Nc1cc(OC)c(OC)c(OC)c1)C(=O)N2 in this assay.
Response: label 0

Query: Please state the recorded outcome for this molecule: CC(C)Sc1nc(Cl)c(C#N)c(-c2ccc(F)cc2)n1
Response: label 0

Query: Returns: the outcome recorded for O=C(COc1cccc(/C=C2\Oc3ccc4ccccc4c3C2=O)c1)c1ccc([N+](=O)[O-])cc1 in this assay.
Response: label 0

Query: Status in this test for Nc1ccc(Oc2c(F)c(F)c(Oc3ccc(N)cc3)c(F)c2F)cc1 ?
Response: label 0

Query: Hi, sorry to bother you, what did the test record for CCN(CC)CCCCCCCNc1c2ccc(Cl)cc2nc2ccc(OC)cc12 ?
Response: label 1

Query: How was CC(=O)O[C@H]1CC[C@@]2(C)C(=CC[C@@H]3[C@@H]2CC[C@]2(C)C(c4cccnc4)=CC[C@@H]32)C1 classified in this test?
Response: label 0

Query: Outcome logged for Nc1ccc2c(c1)C(=O)c1cc(Cl)c(Cl)cc1-2 in this assay:
Response: label 0

Query: Write down the call the test reported for this molecule. Item: CCOC(CNCc1cc(C)c2[nH]c3ccccc3c2c1C)OCC
Response: label 0

---

Kindly supply the reported growth values for the records listed here.
Test system: SK-OV-3 ovarian
Experiment: NCI-60 one-dose screen, 48 h (100 = growth as untreated, 0 = no growth, -100 = all killed)
Conditions: 10 µM unless noted
Protocol: Growth inhibition of the SK-OV-3 human tumor cell line is measured as a screen for anti-cancer activity. Cells are grown in 96 well plates and exposed to the test compound for 48 hours. Compounds are tested at a single concentration, which is 10^-5 M for most compounds. The reported endpoint is percent growth (GI% or GIPRCNT), where numbers from 0 - 100% represent growth inhibition, and numbers from -100% - 0 represent cell death. For example, a value of 40 represents 60% growth inhibition. […]
Compounds without any hit were thinned out: in the full panel of roughly 83,000, 20% have a hit.
Use % as the unit, but write only the number.

The recorded growth for COc1ccc(-c2cnc(SCC(=O)Nc3ccc(-c4nc5ccccc5s4)cc3)n2-c2ccc(OC)cc2)cc1 is 111

Reported growth ( Cc1cc(Cl)ccc1Nc1nc(C(F)(F)F)ccc1C(=O)N/N=C/c1ccc(Cl)cc1 ) = -15.4

Just so you know, measured growth for Cc1cc(=O)[nH]c(/C(=N/Nc2ccccc2)C(=O)c2ccc(Cl)cc2)n1 came out at 98.3

Lab note: measured growth of Cc1ccc(C2=Nc3c(ccc4c(C)c(C)c(=O)oc34)OC2)cc1 was 106

The value of growth measured for the compound O=C1NC(=O)/C(=C/c2ccc(Cl)cc2Cl)N1 turned out to be 98.9

---

tested on: PC-3 prostate; assay: NCI-60 one-dose screen, 48 h; conditions: 10 µM unless noted
Compounds without any hit were thinned out: in the full panel of roughly 83,000, 20% have a hit. Calls of active or inactive are those of the source. Rule for the calls: active = growth percent below 10; inactive = the rest.
Parameter call: string, one of True = active, False = inactive

Query: Any idea what this test logged for c1ccc2nc(N/N=C3\CCCCC3C3CCCCC3)ccc2c1 (stereo not given) ?
Response: False

Query: Recorded call for CC(NC(=O)Oc1cccc2ccccc12)c1ccccc1 (stereo not given) ?
Response: False

Query: # fetch the recorded call for CCOC(=O)c1cc2oc(/C=C/c3cc(=O)c4cc(Cl)ccc4o3)cc2[nH]1 here
Response: False

Query: Field: outcome | Entry: NS(=O)(=O)c1cc2c(cc1Cl)NC=NS2(=O)=O
Response: False

Query: Test call for this compound, please: COc1cccc(C2=NN(C(C)=O)C(c3cc(OC)c(OC)c(OC)c3)C2)c1 (stereo not given)
Response: False

Query: Name the outcome recorded for CCCCN=C(N)c1ccc(OCCSCCOc2ccc(C(N)=NCCCC)cc2)cc1 in the assay.
Response: False

Query: Dear colleague, could you share the recorded outcome for CC(=O)c1ccc(NS(=O)(=O)c2ccc([N+](=O)[O-])cc2)cc1 when you have a moment?
Response: False

Query: Please let me know the test result on file for CNNc1ncnc2c1cnn2-c1ccc(S(N)(=O)=O)cc1 .
Response: False

Query: Name the outcome recorded for CSc1nc(N)c2c(n1)N(C)C=NS2(=O)=O in the assay.
Response: False

Query: What did this assay record as the result for COc1ccc(-c2cc(-c3nnc(SCC(=O)Nc4ccc(C(C)=O)cc4)n3-c3ccccc3)c3ccccc3n2)cc1OC ?
Response: False

Query: What was the test verdict on COc1ccc(C2=NN(C=O)C(c3cccc(Nc4ccnc5cc(Cl)ccc45)c3)C2)cc1 (stereo not given) ?
Response: False

Query: # lookup: test call for CSc1nc2nc3c(nc2c(=O)n1C)C(=O)c1ccccc1C3=O
Response: True

Query: Just curious, what result did COc1ccc(-c2nnc3c4[nH]cnc4ncn23)c(OC)c1 get here?
Response: False

Query: Which outcome did this test record for the compound COc1cc(C(=O)c2cc3c(cc2C)OCO3)cc(OC)c1OC ?
Response: False

Query: Each compound tested received a call. Report the one for CSc1nc(Nc2ccc(S(=O)(=O)Nc3ccon3)cc2)c(C#N)c(-c2ccc(Cl)cc2)n1 .
Response: False

Query: # outcome recorded in this test, key = COc1ccc(CC(=O)Nc2nn3c(-c4cc(C(F)(F)F)cc(C(F)(F)F)c4)nnc3s2)cc1
Response: False

Query: Identify the outcome logged in this assay for the compound shown: NS(=O)(=O)c1ccc(N2CC(c3nc4ccccc4[nH]3)CC2=O)cc1 (stereo not given)
Response: False

Query: Entry O=C(O)c1ccc(CNS(=O)(=O)c2ccc3ccccc3c2)cc1 : call = ?
Response: False

Query: In this assay, the call recorded for C/C=C(/C(=C/C)c1ccc(O)cc1)c1ccc(O)cc1 was what?
Response: False

Query: Please share the test call associated with Nc1nc(NC2CC2)c2ncn(C3C=CC(CO)C3)c2n1 (stereo not given) .
Response: False

Query: Dear colleague, could you share the recorded outcome for COC(=O)[C@H]1[C@H]2C[C@@H]3c4[nH]c5cc(OC)ccc5c4CCN3C[C@H]2C[C@@H](OC(=O)/C=C/c2cc(OC)c(OC)c(OC)c2)[C@@H]1OC when you have a moment?
Response: False

Query: Which outcome was entered for the compound COc1cc2c(cc1OC)C(=O)/C(=C/c1cccc(OCC(=O)c3ccccc3)c1)C2 in this test?
Response: False

Query: For this compound, state the assay outcome: Cc1cc(C(=O)Nc2ccc3cc(CN4CCOCC4)ccc3n2)c(C)n1-c1ccccc1
Response: True

Query: Hi, do you know how CCOc1cc(/C=C/C(=O)C(C(=O)/C=C/c2ccc(OC(=O)CNc3nnc(C)s3)c(OCC)c2)C(=O)CNc2nnc(C)s2)ccc1OC(=O)CNc1nnc(C)s1 came out in this test?
Response: True

Query: Hey, what did the test say about Cc1[nH]c(=O)[nH]c(=O)c1CCSSCCc1c(C)[nH]c(=O)[nH]c1=O ?
Response: False

Query: Assay result, entry CCCCCCCCCCN1CCC(N2CCCCC2)CC1 — outcome?
Response: False

Query: Test call for this compound, please: CCCCCc1c(C)[nH]c(/C=C2\N=C(c3ccc[nH]3)C=C2Oc2ccc(Cl)cc2)c1C
Response: True

Query: What classification did CC[C@@H](C)/C=C(C)/C=C/C(=O)c1c(O)c(-c2ccc(O)cc2)cn(OC2CC(=O)CCC(C)OC(=O)CC2O)c1=O (stereo not given in full) end up with in this test?
Response: False

Query: Any idea what this test logged for c1ccc(N2c3nc4ccccc4cc3Sc3cc4ccccc4nc32)nc1 ?
Response: False

Query: Recorded call for COc1ccc(-c2cnc(SCC(=O)Nc3ccc(-c4nc5ccccc5s4)cc3)n2-c2ccc(OC)cc2)cc1 ?
Response: False

Query: # outcome recorded in this test, key = COP(=O)(OC)C(c1ccccc1)(c1ccccc1)c1ccccc1
Response: False

Query: Hi, sorry to bother you, what did the test record for O=C(Nc1nc(-c2ccc(Cl)cc2)cs1)c1cc(-c2ccc(Br)cc2)nc2ccc(Cl)cc12 ?
Response: False

Query: Give the logged outcome of this assay for the following compound: CCOC(=O)c1sc(NC(=O)COc2cccc(/C=C3\Cc4ccc(Cl)cc4C3=O)c2)nc1C
Response: False

Query: Recorded test outcome, item N#Cc1c(-c2ccccc2)cc(-c2ccccc2)n(CCC(=O)O)c1=O
Response: False

Query: // param item: COc1ccc(OC)c2c1CCC1(C2)NC(=O)NC1=O (stereo not given) ; yields the recorded call
Response: False

Query: Test call for this compound, please: NC(=NCCCCCCN=C(N)/N=C(\N)Nc1ccc(Cl)cc1)/N=C(\N)Nc1ccc(Cl)cc1
Response: False

Query: Please state the recorded outcome for this compound: O=C(Nc1nc2c(C(F)(F)F)cccc2s1)c1cc(Cl)ccc1O
Response: True

Query: Please indicate how the test categorized Nc1ccn(C2O[C@H](CO)[C@@H](O)[C@@H]2O)c(=O)n1 (stereo not given in full) .
Response: False

Query: What outcome does the record of this test show for N#Cc1c(-c2ccccc2)cc(-c2ccccc2)n(CCCC(=O)O)c1=O ?
Response: False

Query: Hi, sorry to bother you, what did the test record for CCOc1cc(/C=C/C(=O)CC(=O)/C=C/c2ccc(OC(=O)CNc3nc4ccc(OC)cc4s3)c(OCC)c2)ccc1OC(=O)CNc1nc2ccc(OC)cc2s1 ?
Response: False
